All figures here come from patent US20250344697A1.

Give measured EC50 (ppm) for each item. Keep answers brief.
Test system: K9026 Zymoseptoria tritici CYP51 L50S S188N A379G I381V YG459 N513K
Experiment: in vitro antifungal test, Z. tritici spore suspension in PDB
Type: cell-based
Details: isolate K9026, 1st listed row; growth at 3 days post exposure; average of two replicates
Experimental: A panel of 16 Zymoseptoria tritici isolates was subjected to in vitro antifungal tests. […] The half maximal effective concentration (EC50) of the inhibitors were calculated based on growth responses of Z. tritici at 3 days post exposure to the different concentrations of the […] using a linear regression. […]
Report only the number, with the unit ppm understood.

# lookup: EC50 (ppm) of COC(=O)C(O)(Cn1cncn1)c1ccc(Oc2ccc(Cl)cc2)cc1Cl (racemic) [Racemate Compound I-1]
10

# lookup: EC50 (ppm) of COC(=O)C(O)(Cn1cncn1)c1ccc(Oc2ccc(Cl)cc2)cc1C(F)(F)F (single isomer, unassigned; (-)) [(−)-enantiomer of Compound I-2]
3

# lookup: EC50 (ppm) of COC(=O)C(O)(Cn1cncn1)c1ccc(Oc2ccc(Cl)cc2)cc1Cl (single isomer, unassigned; (+)) [(+)-enantiomer of Compound I-1]
20

* * *

system: K9026 Zymoseptoria tritici CYP51 L50S S188N A379G I381V YG459 N513K; experiment: in vitro antifungal test, Z. tritici spore suspension in PDB; format: cell-based; settings: isolate K9026, 1st listed row; growth at 3 days post exposure; average of two replicates
Give measured EC50 (ppm) for each item. Keep answers brief.

Hi! What's the reported EC50 (ppm) for COC(=O)C(O)(Cn1cncn1)c1ccc(Oc2ccc(Cl)cc2)cc1C(F)(F)F (racemic) [Racemate Compound I-2] on K9026 Zymoseptoria tritici CYP51 L50S S188N A379G I381V YG459 N513K?
6 ppm

Hi! What's the reported EC50 (ppm) for COC(=O)C(O)(Cn1cncn1)c1ccc(Oc2ccc(Cl)cc2)cc1C(F)(F)F (single isomer, unassigned; (+)) [(+)-enantiomer of Compound I-2] on K9026 Zymoseptoria tritici CYP51 L50S S188N A379G I381V YG459 N513K?
>20 ppm

Hi! What's the reported EC50 (ppm) for COC(=O)C(O)(Cn1cncn1)c1ccc(Oc2ccc(Cl)cc2)cc1Cl (single isomer, unassigned; (-)) [(−)-enantiomer of Compound I-1] on K9026 Zymoseptoria tritici CYP51 L50S S188N A379G I381V YG459 N513K?
4 ppm

* * *

Give measured EC50 (ppm) for each item. Keep answers brief.
test system: K9029 Zymoseptoria tritici CYP51 L50S I381V YG459 N513K; test: in vitro antifungal test, Z. tritici spore suspension in PDB; type: cell-based; conditions: isolate K9029, 3rd listed row; growth at 3 days post exposure; average of two replicates
Report only the number, with the unit ppm understood.

# lookup: EC50 (ppm) of COC(=O)C(O)(Cn1cncn1)c1ccc(Oc2ccc(Cl)cc2)cc1Cl (single isomer, unassigned; (+)) [(+)-enantiomer of Compound I-1]
20

# lookup: EC50 (ppm) of COC(=O)C(O)(Cn1cncn1)c1ccc(Oc2ccc(Cl)cc2)cc1Cl (racemic) [Racemate Compound I-1]
10

# lookup: EC50 (ppm) of COC(=O)C(O)(Cn1cncn1)c1ccc(Oc2ccc(Cl)cc2)cc1C(F)(F)F (racemic) [Racemate Compound I-2]
10

# lookup: EC50 (ppm) of COC(=O)C(O)(Cn1cncn1)c1ccc(Oc2ccc(Cl)cc2)cc1Cl (single isomer, unassigned; (-)) [(−)-enantiomer of Compound I-1]
3

# lookup: EC50 (ppm) of COC(=O)C(O)(Cn1cncn1)c1ccc(Oc2ccc(Cl)cc2)cc1C(F)(F)F (single isomer, unassigned; (-)) [(−)-enantiomer of Compound I-2]
5

* * *

tested on: K9032 Zymoseptoria tritici CYP51 L50S D134G V136A I381V Y461H S524T; test: in vitro antifungal test, Z. tritici spore suspension in PDB; assay type: cell-based; settings: isolate K9032, 3rd listed row; growth at 3 days post exposure; average of two replicates
I'd appreciate it if you marked entries Yes when EC50 (ppm) is lower than 0.1 ppm and No when it is not.

Hello, is EC50 (ppm) of the following molecule strictly smaller than 0.1 ppm? COC(=O)C(O)(Cn1cncn1)c1ccc(Oc2ccc(Cl)cc2)cc1Cl (single isomer, unassigned; (+)) [(+)-enantiomer of Compound I-1]
No

Hello, is EC50 (ppm) of the following molecule strictly smaller than 0.1 ppm? COC(=O)C(O)(Cn1cncn1)c1ccc(Oc2ccc(Cl)cc2)cc1Cl (single isomer, unassigned; (-)) [(−)-enantiomer of Compound I-1]
Yes

Hello, is EC50 (ppm) of the following molecule strictly smaller than 0.1 ppm? COC(=O)C(O)(Cn1cncn1)c1ccc(Oc2ccc(Cl)cc2)cc1C(F)(F)F (single isomer, unassigned; (+)) [(+)-enantiomer of Compound I-2]
No

Hello, is EC50 (ppm) of the following molecule strictly smaller than 0.1 ppm? COC(=O)C(O)(Cn1cncn1)c1ccc(Oc2ccc(Cl)cc2)cc1C(F)(F)F (single isomer, unassigned; (-)) [(−)-enantiomer of Compound I-2]
Yes

* * *

test system: K9029 Zymoseptoria tritici CYP51 L50S I381V YG459 N513K; test: in vitro antifungal test, Z. tritici spore suspension in PDB; type: cell-based; conditions: isolate K9029, 1st listed row; growth at 3 days post exposure; average of two replicates
EXPERIMENTAL_READOUT: EC50 (ppm)
Report only the number, with the unit ppm understood.

# lookup: EC50 (ppm) of COC(=O)C(O)(Cn1cncn1)c1ccc(Oc2ccc(Cl)cc2)cc1C(F)(F)F (single isomer, unassigned; (-)) [(−)-enantiomer of Compound I-2]
0.5

# lookup: EC50 (ppm) of COC(=O)C(O)(Cn1cncn1)c1ccc(Oc2ccc(Cl)cc2)cc1C(F)(F)F (racemic) [Racemate Compound I-2]
0.8

* * *

system: K9021 Zymoseptoria tritici CYP51 L50S V136A I381V Y461S S524T; assay: in vitro antifungal test, Z. tritici spore suspension in PDB; type: cell-based; conditions: isolate K9021; growth at 3 days post exposure; average of two replicates
EXPERIMENTAL_READOUT: EC50 (ppm)
Report only the number, with the unit ppm understood.

# lookup: EC50 (ppm) of COC(=O)C(O)(Cn1cncn1)c1ccc(Oc2ccc(Cl)cc2)cc1Cl (single isomer, unassigned; (+)) [(+)-enantiomer of Compound I-1]
5

# lookup: EC50 (ppm) of COC(=O)C(O)(Cn1cncn1)c1ccc(Oc2ccc(Cl)cc2)cc1C(F)(F)F (single isomer, unassigned; (-)) [(−)-enantiomer of Compound I-2]
0.05

# lookup: EC50 (ppm) of COC(=O)C(O)(Cn1cncn1)c1ccc(Oc2ccc(Cl)cc2)cc1C(F)(F)F (single isomer, unassigned; (+)) [(+)-enantiomer of Compound I-2]
3

# lookup: EC50 (ppm) of COC(=O)C(O)(Cn1cncn1)c1ccc(Oc2ccc(Cl)cc2)cc1Cl (single isomer, unassigned; (-)) [(−)-enantiomer of Compound I-1]
0.04

# lookup: EC50 (ppm) of COC(=O)C(O)(Cn1cncn1)c1ccc(Oc2ccc(Cl)cc2)cc1Cl (racemic) [Racemate Compound I-1]
0.09

# lookup: EC50 (ppm) of COC(=O)C(O)(Cn1cncn1)c1ccc(Oc2ccc(Cl)cc2)cc1C(F)(F)F (racemic) [Racemate Compound I-2]
0.09

* * *

Give measured EC50 (ppm) for each item. Keep answers brief.
Tested on: K9029 Zymoseptoria tritici CYP51 L50S I381V YG459 N513K
Test: in vitro antifungal test, Z. tritici spore suspension in PDB
Format: cell-based
Settings: isolate K9029, 1st listed row; growth at 3 days post exposure; average of two replicates
Protocol: A panel of 16 Zymoseptoria tritici isolates was subjected to in vitro antifungal tests. […] The half maximal effective concentration (EC50) of the inhibitors were calculated based on growth responses of Z. tritici at 3 days post exposure to the different concentrations of the […] using a linear regression. […]
Report only the number, with the unit ppm understood.

# lookup: EC50 (ppm) of COC(=O)C(O)(Cn1cncn1)c1ccc(Oc2ccc(Cl)cc2)cc1Cl (single isomer, unassigned; (+)) [(+)-enantiomer of Compound I-1]
20

# lookup: EC50 (ppm) of COC(=O)C(O)(Cn1cncn1)c1ccc(Oc2ccc(Cl)cc2)cc1Cl (single isomer, unassigned; (-)) [(−)-enantiomer of Compound I-1]
0.3

# lookup: EC50 (ppm) of COC(=O)C(O)(Cn1cncn1)c1ccc(Oc2ccc(Cl)cc2)cc1Cl (racemic) [Racemate Compound I-1]
0.8
